- Tested on: S. aureus ATCC 43300 (MRSA)
- Assay Protocol: Antimicrobial microtiter plate MIC assay, S. aureus ATCC 43300 (MRSA)
- Type: cell-based, Staphylococcus aureus
- Measurement Setup: Gram-positive, Mueller Hinton broth, 16–18 h at 37 °C
Measured Metric: MIC (µM)
Write the value in µM as a bare number.

Input line: Return reported MIC; argument: `Cc1ccc(C(C)C)cc1.Cc1ccc2c(c1)n(Cc1ccccc1)[c](=[Ru]([Cl])[Cl])n2Cc1ccccc1`
Output line: 25.9

Input line: Please look up its MIC: `Cc1ccc(C(C)C)cc1.Fc1ccc2c(c1)n(Cc1ccccc1)[c](=[Ru]([Cl])[Cl])n2Cc1ccccc1`
Output line: 25.7

Input line: May I ask what MIC has been recorded for `COc1ccc2c(c1)n(Cc1ccccc1)[c](=[Ru]([Cl])[Cl])n2Cc1ccccc1.Cc1ccc(C(C)C)cc1` ?
Output line: 25.2

Input line: Which MIC is listed for `Cc1ccc(C(C)C)cc1.[Cl][Ru]([Cl])=[c]1n(Cc2ccccc2)c2ccc(Br)cc2n1Cc1ccccc1` ?
Output line: 11.7

Input line: Recorded MIC of `Cc1ccc(C(C)C)cc1.Clc1ccc2c(c1)n(Cc1ccccc1)[c](=[Ru]([Cl])[Cl])n2Cc1ccccc1` , please.
Output line: 12.5

* * *

- Tested on: P. aeruginosa DSM 50071
- Assay Protocol: Antimicrobial microtiter plate MIC assay, P. aeruginosa
- Assay type: cell-based, Pseudomonas aeruginosa
- Measurement Setup: Gram-negative, cation-adjusted Mueller Hinton II, 16–18 h at 37 °C
Measured Metric: MIC

Input line: Please give the measured MIC for this compound: `Cc1ccc(C(C)C)cc1.Cc1ccc2c(c1)n(Cc1ccccc1)[c](=[Ru]([Cl])[Cl])n2Cc1ccccc1`
Output line: 413.8 µM

Input line: Quick one: MIC of `Cc1ccc(C(C)C)cc1.Fc1ccc2c(c1)n(Cc1ccccc1)[c](=[Ru]([Cl])[Cl])n2Cc1ccccc1` ?
Output line: >822.4 µM

Input line: Query (compound): `COc1ccc2c(c1)n(Cc1ccccc1)[c](=[Ru]([Cl])[Cl])n2Cc1ccccc1.Cc1ccc(C(C)C)cc1` ; field requested: MIC
Output line: >806.8 µM

Input line: # input compound: `Cc1ccc(C(C)C)cc1.Clc1ccc2c(c1)n(Cc1ccccc1)[c](=[Ru]([Cl])[Cl])n2Cc1ccccc1` ; wanted: its MIC
Output line: >802.4 µM

Input line: May I ask what MIC has been recorded for `Cc1ccc(C(C)C)cc1.[Cl][Ru]([Cl])=[c]1n(Cc2ccccc2)c2ccc(Br)cc2n1Cc1ccccc1` ?
Output line: >749.1 µM

* * *

- Measured On: E. coli TrxR (Escherichia coli)
- Construct: purchased Merck (Darmstadt, Germany)
- Assay Protocol: Inhibition of bacterial TrxR (E. coli), 5,5-dithiobis-(2-nitrobenzoic acid) reduction assay
- Type: biochemical
pIC50: −log10 of the molar value.
Consider the following compounds; for each one, report its pIC50.

Input line: Test system E. coli TrxR (Escherichia coli); read-out pIC50; what value for Cc1ccc2c(c1)n(Cc1ccccc1)c[n+]2Cc1ccccc1 [2b] ?
Output line: < 4.00

Input line: Tell me reported pIC50 for Brc1ccc2c(c1)n(Cc1ccccc1)c[n+]2Cc1ccccc1 [2f] , tested with E. coli TrxR (Escherichia coli).
Output line: < 4.00

* * *

- Test system: C. albicans DSM 1386
- Assay Protocol: Antimicrobial microtiter plate MIC assay, C. albicans
- Assay type: cell-based, Candida albicans
- Measurement Setup: fungus, Sabouraud broth
Measured Metric: MIC

Input line: What value of measured MIC is listed for `Cc1ccc(C(C)C)cc1.Cc1ccc2c(c1)n(Cc1ccccc1)[c](=[Ru]([Cl])[Cl])n2Cc1ccccc1` ?
Output line: >827.7 µM

Input line: Which MIC reading was recorded for the compound `Cc1ccc(C(C)C)cc1.Clc1ccc2c(c1)n(Cc1ccccc1)[c](=[Ru]([Cl])[Cl])n2Cc1ccccc1` ?
Output line: >802.4 µM

Input line: Any idea what MIC was measured for `Cc1ccc(C(C)C)cc1.Fc1ccc2c(c1)n(Cc1ccccc1)[c](=[Ru]([Cl])[Cl])n2Cc1ccccc1` ?
Output line: >822.4 µM

Input line: Consider the compound `COc1ccc2c(c1)n(Cc1ccccc1)[c](=[Ru]([Cl])[Cl])n2Cc1ccccc1.Cc1ccc(C(C)C)cc1` and give its measured MIC.
Output line: >806.8 µM

Input line: State the recorded MIC for this entry: `Cc1ccc(C(C)C)cc1.[Cl][Ru]([Cl])=[c]1n(Cc2ccccc2)c2ccc(Br)cc2n1Cc1ccccc1`
Output line: >749.1 µM

* * *

- System: E. coli DSM 30083
- Assay Protocol: Antimicrobial microtiter plate MIC assay, E. coli
- Format: cell-based, Escherichia coli
- Measurement Setup: Gram-negative, Mueller Hinton broth, 16–18 h at 37 °C
Measured Metric: MIC (µM)
Quick reminder: number only, in µM, skip the unit.

Input line: Field request: MIC | item: `Cc1ccc(C(C)C)cc1.Clc1ccc2c(c1)n(Cc1ccccc1)[c](=[Ru]([Cl])[Cl])n2Cc1ccccc1`
Output line: 401.2

Input line: # query: MIC of entry `Cc1ccc(C(C)C)cc1.Fc1ccc2c(c1)n(Cc1ccccc1)[c](=[Ru]([Cl])[Cl])n2Cc1ccccc1`
Output line: 822.4

Input line: Entry under review: `Cc1ccc(C(C)C)cc1.[Cl][Ru]([Cl])=[c]1n(Cc2ccccc2)c2ccc(Br)cc2n1Cc1ccccc1` . Reported MIC?
Output line: 374.6

Input line: Name the recorded MIC for `Cc1ccc(C(C)C)cc1.Cc1ccc2c(c1)n(Cc1ccccc1)[c](=[Ru]([Cl])[Cl])n2Cc1ccccc1` .
Output line: 827.7

* * *

- Test system: S. aureus ATCC 43300 (MRSA)
- Assay Protocol: Antimicrobial microtiter plate MIC assay, S. aureus ATCC 43300 (MRSA)
- Type: cell-based, Staphylococcus aureus
- Measurement Setup: Staphylococcus aureus, Gram-positive, Mueller Hinton broth, 16–18 h at 37 °C
- Description: The fungus Candida albicans was used as a non-bacterial reference organism. The broad-spectrum antibiotic Ciprofloxacin was used as a reference drug. Compounds were tested in a microtiter plate assay according to CLSI guidelines against E. coli DSM 30083, A. baumannii DSM 30007, P. aeruginosa DSM 50071, B. subtilis DSM 402, S. aureus DSM 20231, S. aureus ATCC 43300 (MRSA), and C. albicans, as described previously. […]
Measured Metric: MIC (µM)
Number in µM, nothing else.

Input line: Which MIC is listed for `Brc1ccc2c(c1)n(Cc1ccccc1)c[n+]2Cc1ccccc1` ?
Output line: 69.8

Input line: Looking for the measured MIC of O=C(O)c1cn(C2CC2)c2cc(N3CCNCC3)c(F)cc2c1=O [Ciprofloxacin, reference compound] , can you help?
Output line: 12

Input line: Record request: MIC value, item `Cc1ccc2c(c1)n(Cc1ccccc1)c[n+]2Cc1ccccc1`
Output line: 163

Input line: If you can, please state the reported MIC value of `c1ccc(Cn2c[n+](Cc3ccccc3)c3ccccc32)cc1` .
Output line: 42.2

* * *

- Measured On: E. coli TrxR (Escherichia coli, UniProt P0A9P4)
- Construct: purchased Merck (Darmstadt, Germany)
- Sequence (P0A9P4 whole entry): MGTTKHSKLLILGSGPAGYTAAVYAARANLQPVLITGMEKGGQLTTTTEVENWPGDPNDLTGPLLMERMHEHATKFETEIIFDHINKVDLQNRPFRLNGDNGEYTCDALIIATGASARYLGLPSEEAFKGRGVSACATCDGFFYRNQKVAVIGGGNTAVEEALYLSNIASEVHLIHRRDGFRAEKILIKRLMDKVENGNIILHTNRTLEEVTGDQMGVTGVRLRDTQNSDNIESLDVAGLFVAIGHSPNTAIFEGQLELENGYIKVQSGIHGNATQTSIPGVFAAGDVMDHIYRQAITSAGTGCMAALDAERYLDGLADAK
- Assay Protocol: Inhibition of bacterial TrxR (E. coli), 5,5-dithiobis-(2-nitrobenzoic acid) reduction assay
- Type: biochemical
- Measurement Setup: purified E. coli TrxR, DTNB reduction, 75 min preincubation at 25 °C; mean (±SD) of three experiments; read-out: IC50 inhibition of E. coli TrxR
pIC50: −log10 of the molar value.
Task for the reader: assign each of the following molecules its reported pIC50.

Input line: Given the entry Cc1ccc(C(C)C)cc1.Cc1ccc2c(c1)n(Cc1ccccc1)[c](=[Ru]([Cl])[Cl])n2Cc1ccccc1 [3b] , report its measured pIC50.
Output line: 4.85

Input line: What measured pIC50 goes with c1ccc(Cn2c[n+](Cc3ccccc3)c3ccccc32)cc1 [2a] ?
Output line: < 4.00

Input line: // lookup pIC50 for Cc1ccc(C(C)C)cc1.[Cl][Ru]([Cl])=[c]1n(Cc2ccccc2)c2ccc(Br)cc2n1Cc1ccccc1 [3f]
Output line: < 4.00

* * *

- Tested on: S. aureus DSM 20231
- Assay Protocol: Antimicrobial microtiter plate MIC assay, S. aureus DSM 20231
- Format: cell-based, Staphylococcus aureus
- Measurement Setup: Staphylococcus aureus, DSM20231, Gram-positive, Mueller Hinton broth, 16–18 h at 37 °C
Measured Metric: MIC (µM)
The answer is to be given in µM; state only the numeric part.

Input line: I have this compound here, O=C(O)c1cn(C2CC2)c2cc(N3CCNCC3)c(F)cc2c1=O [Ciprofloxacin, reference compound] , and I need its recorded MIC.
Output line: 12

Input line: Look at this compound and give its reported MIC. `Cc1ccc2c(c1)n(Cc1ccccc1)c[n+]2Cc1ccccc1`
Output line: 81.4

Input line: # query: MIC of entry `c1ccc(Cn2c[n+](Cc3ccccc3)c3ccccc32)cc1`
Output line: 42.2

Input line: # query: MIC of entry `Brc1ccc2c(c1)n(Cc1ccccc1)c[n+]2Cc1ccccc1`
Output line: 140
